biological target: erythrocytes infected with P. falciparum field isolate 10936; test: flow cytometry, staining of IEs
attributeMeasured: % parasite recognition (%)
Your answer is read as %, so omit the unit and give the number.

Guide cases for % parasite recognition, answers given:
INSERT INTO measurements (binder, experimentalresult) VALUES
  ('MGC32 (antibody) VH: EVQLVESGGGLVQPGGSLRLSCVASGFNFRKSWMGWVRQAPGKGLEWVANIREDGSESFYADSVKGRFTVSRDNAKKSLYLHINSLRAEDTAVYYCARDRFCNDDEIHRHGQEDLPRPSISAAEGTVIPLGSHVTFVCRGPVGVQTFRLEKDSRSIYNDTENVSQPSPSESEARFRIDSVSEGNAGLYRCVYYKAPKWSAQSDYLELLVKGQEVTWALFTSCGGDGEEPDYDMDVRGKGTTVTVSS VL: DILMTQSPDSLAVSLGERATINCKSSQSVLYRSKNKNYLAWFQQKPGQPPKVLIYSTSTRASGVPDRFTGSGSGTDFTLTISSLQAEDVAVYYCLQYYITPYTFGQGTKLEIK', 2.9),
  ('MGC28 (antibody) VH: EVQLVESGGGLVQPGGSLRLSCEASGFTFSSYWMTWVRQAPGKGLEWVANINQDGSERYYVDSVKGRFTISRDTVKNSLYLQMNNLRAEDTAVYYCARQRFCSDGSLFHGEDLPRPTISAETGTVISLGSHVTFVCRGPLGVQTFRLERESRSRYSETEDVSQVGPSESEARFRIDSVSEGNAGLYRCIYYKPPKWSEQSDYLELRVKGEDVTWALLTYCGGDRDESDYYMDVWGKGTTVTVSS VL: QTVVTQEPSLTVSPGGTVTLTCASSTGSVTSGSFPNWFQQTPGQAPRSLIYSTTKKHSWTPARFSGSLLGGKAALTVSDTQPEDEAEYYCLLYCGGGQPWVFGGGTKLTVL', 3);

Please look at the following binder next.
For reference, reported % parasite recognition for MGD33 (antibody) VH: HVQLQESGPGLVKPSETLSLSCAVTGGSITSSKWWTWVRQGPDKGLEWIGKIYHNGTTNYNPSLKSRVAMSVDKSKNQFSLRLTSVTAADTAVYYCATASPFKSHHRTTEKLPRPSISAEPGTVIPLGSRVTFVCRGPVGVQTFRLERETRSTYNDTEDVSQVSPSESEARFRIDSVSEGYAGPYRCVYYKAPKWSEQSDYLDLLVKGEDVTWALTQPQLDPRACPQGDLRMSTDIYCMDVWGKGTTVTVSS VL: AIRLTQSPSSLSASIGDRVTITCRASQDISTYLAWYQQESGKAPRLLIFAASSLQTGVPSRFSGSGSGTDFTLTISGLQSEDFATYYCQQYYCFPPDFGQGTRLDIK stands at 6.1

Entry source: patent US20180186897A1
